# protocol notes: Cytotoxicity against human HepG2 cells assessed as cellular ATP level at 100 uM after 1 day by ATPLite assay relative to control
# Format: cell-based
# assay setup: read-out: Activity
measured parameter: viability at 24 h, 100 µM (%)

| chemical smiles | measured parameter | measured value |
| --- | --- | --- |
| CNCc1cn(S(=O)(=O)c2cccnc2)c(-c2cccnc2F)c1F | viability at 24 h, 100 µM | 100 |
| CNCc1cc(-c2cccnc2F)n(S(=O)(=O)c2cccs2)c1 | viability at 24 h, 100 µM | 74.9 |
| CNCc1cc(-c2cccnc2C)n(S(=O)(=O)c2cccnc2)c1 | viability at 24 h, 100 µM | 107 |
| CNCc1cc(-c2cccnc2)n(S(=O)(=O)c2ccccc2)c1 | viability at 24 h, 100 µM | 95 |
| CNCc1cc(-c2ccncc2F)n(S(=O)(=O)c2cccnc2)c1 | viability at 24 h, 100 µM | 78.8 |
| CNCc1cc(-c2cncnc2)n(S(=O)(=O)c2ccccc2)c1 | viability at 24 h, 100 µM | 97.5 |
| CNCc1cc(-c2cccnc2F)n(S(=O)(=O)c2ccc(OC)nc2)c1 | viability at 24 h, 100 µM | 47.6 |
| CNCc1cc(-c2cccnc2F)n(S(=O)(=O)c2cccc(F)c2)c1 | viability at 24 h, 100 µM | 65.9 |
| CNCc1cn(S(=O)(=O)c2cccnc2)c(-c2cccnc2F)c1C | viability at 24 h, 100 µM | 47.1 |
| CNCc1cc(-c2cccnc2C#N)n(S(=O)(=O)c2ccccc2)c1 | viability at 24 h, 100 µM | 82.1 |
| CNCc1cc(-c2cccnc2F)n(S(=O)(=O)c2ccsc2)c1 | viability at 24 h, 100 µM | 64 |
| CNCc1cc(-c2cccnc2F)n(S(=O)(=O)c2ccco2)c1 | viability at 24 h, 100 µM | 68.7 |
| CNCc1cc(-c2cccnc2F)n(S(=O)(=O)c2cccnc2)c1 | viability at 24 h, 100 µM | 85.7 |
| CNCc1cn(S(=O)(=O)c2cccnc2)c(-c2cccnc2F)c1Cl | viability at 24 h, 100 µM | 64.5 |
